- run.description: physchem
- measurement.conditions: pH 7.4, aqueous buffer, kinetic from dmso stock, Solubility Range
measured.endpoint: solubility at 24 h

- CCNC(=O)Nc1nc2cc(-c3cnc(N4CCC(C)(C(=O)O)CC4)nc3)cc(-c3nccc(N(C)C)c3C#N)c2s1: < 12.5 µg/mL

q: Which solubility at 24 h value is on record for `CCNC(=O)Nc1nc2cc(-c3cnc(N4CCC5(CC4)CC(CC)(C(=O)O)C5)nc3)cc(-c3ccccn3)c2s1` ?
a: > 800 µg/mL

q: // same read-out, input: `CCNC(=O)Nc1nc2cc(-c3cnc(N4CCC(C)(C(=O)O)CC4)nc3)cc(Br)c2s1`
a: 400 to 800 µg/mL

q: // same read-out, input: CCNC(=O)Nc1nc2cc(-c3cnc4c(c3)OC(C)(C(=O)O)C(=O)N4)cc(-c3ccccn3)c2s1 (centres unmarked)
a: 400 to 800 µg/mL

q: // same read-out, input: `CCNC(=O)Nc1nc2cc(-c3cnc(N4CCC(C)(C(=O)O)CC4)nc3)cc(-c3ccc(C#N)c(C)n3)c2s1`
a: 12.5 to 400 µg/mL

q: // same read-out, input: CCNC(=O)Nc1nc2cc(-c3cnc(NC4CCC(C)(C(=O)O)CC4)nc3)cc(-c3ccccn3)c2s1 (centres unmarked)
a: > 800 µg/mL

q: // same read-out, input: `CCNC(=O)Nc1nc2cc(-c3cnc(N4CCC(C)(C(=O)O)CC4)nc3)cc(-c3ccncc3)c2s1`
a: > 800 µg/mL

q: // same read-out, input: `CCNC(=O)Nc1nc2cc(-c3cnc(N4CCC(NC(=O)OC(C)(C)C)(C(=O)OC)CC4)nc3)cc(-c3ccccn3)c2s1`
a: 12.5 to 400 µg/mL

q: // same read-out, input: `CCNC(=O)Nc1nc2cc(-c3cnc(N4CCC(SC)(C(=O)O)CC4)nc3)cc(-c3ccccn3)c2s1`
a: > 800 µg/mL

* * *

- run.description: Pharmacokinetic assay, IV and oral PK profile, mouse
- Type: in vivo
- measurement.conditions: single intravenous dose 3 mg/kg, plasma, read-out: AUCiv
measured.endpoint: AUC (ng·h/mL)

Illustrative cases are given below, each with its answer.
* CCNC(=O)Nc1nc2cc(-c3cnc(N4CCC(C)(C(=O)O)CC4)nc3)cc(/C(C)=N/OC)c2s1 [Compound 88] | 6100
* C=CCC1(C(=O)O)CCN(c2ncc(-c3cc(-c4ccccn4)c4sc(NC(=O)NCC)nc4c3)cn2)CC1 [Compound 136] | 20000

a. CCNC(=O)Nc1nc2cc(-c3ccc(N4CCC(C)(C(=O)O)CC4)nc3)cc(-c3ccccn3)c2s1 [Compound 4]
b. CCNC(=O)Nc1nc2cc(-c3cnc(N4CCC(CC)(C(=O)O)CC4)nc3)cc(-c3ccccn3)c2s1 [Compound 98]
q: Hey, which is lower on measured AUC, a or b ? Respond with the label that goes with your answer.
a: a
(a: 7600 ng·h/mL, b: 14300 ng·h/mL)

* * *

- run.description: physchem
- measurement.conditions: pH 7.4, aqueous buffer, kinetic from dmso stock, Solubility Range (maximum solubility)
measured.endpoint: solubility at 24 h

q: Which solubility at 24 h value is on record for `CCNC(=O)Nc1nc2cc(-c3cnc(N4CCC(C)(C(=O)O)CC4)nc3)cc(-c3cc(OCCOC)nc(C)n3)c2s1` ?
a: > 800 µg/mL

q: // same read-out, input: `CCNC(=O)Nc1nc2cc(-c3cnc(N4CCC(CC)(C(=O)O)CC4)nc3)cc(-c3ncc(C)cn3)c2s1`
a: > 800 µg/mL

q: // same read-out, input: `CCNC(=O)Nc1nc2cc(-c3cnc(N4CCC(C)(C(=O)O)CC4)nc3)cc(-c3ccncc3)c2s1`
a: > 800 µg/mL

q: // same read-out, input: `CCNC(=O)Nc1nc2cc(-c3cnc(N4CCC(C)(C(=O)O)CC4)nc3)cc(-c3ncc(C)cc3C#N)c2s1`
a: 12.5 to 400 µg/mL

q: // same read-out, input: `CCNC(=O)Nc1nc2cc(-c3cnc(N4CCC(C)(C(=O)OCC)CC4)nc3)c(OC)cc2s1`
a: < 12.5 µg/mL

q: // same read-out, input: `CCNC(=O)Nc1nc2cc(-c3cnc(N4CCC(C)(C(=O)O)CC4)nc3)cc(-c3ccncn3)c2s1`
a: > 800 µg/mL

q: // same read-out, input: `CCNC(=O)Nc1nc2cc(-c3cnc(N4CCC(CC)(C(=O)O)CC4)nc3)nc(-c3ccccn3)c2s1`
a: 12.5 to 400 µg/mL

* * *

- run.description: physchem
- measurement.conditions: pH 7.4, aqueous buffer, kinetic from dmso stock, Solubility (pH 7.4)
measured.endpoint: solubility at 24 h (µg/mL)

Illustrative cases are given below, each with its answer.
- CCNC(=O)Nc1nc2cc(-c3cnc(N4CCC(C(=O)OC)(C(F)(F)F)C4)nc3)cc(-c3ccccn3)c2s1 (stereo not shown): 6.25
- CCNC(=O)Nc1nc2cc(-c3cnc(N4CCC(C)(C(=O)O)CC4)nc3)cc(-c3nccc(OC)n3)c2s1: 100

A. CCNC(=O)Nc1nc2cc(-c3cnc(N4CCC(C)(C(=O)O)CC4)nc3)cc(NC(=O)c3ncccn3)c2s1
B. CCNC(=O)Nc1nc2cc(-c3cnc(N4CCC(C)(C(=O)O)CC4)nc3)cc(C#Cc3ccncc3)c2s1
q: Hey, which is lower on measured solubility at 24 h, A or B ? Respond with the label that goes with your answer.
a: A
(A: 50 µg/mL, B: 400 µg/mL)

* * *

We begin with a simple list: items and their reported solubility at 24 h.
- run.description: physchem
- measurement.conditions: pH 9, aqueous buffer, kinetic from dmso stock, Solubility Range (maximum solubility)

Illustrative cases are given below, each with its answer.
* CCNC(=O)Nc1nc2cc(-c3cnc(N4CCC(C)(C(=O)O)CC4)nc3)cc(-c3ncc(F)cn3)c2s1 | 12.5 to 400 µg/mL
* CCCC1(C(=O)O)CCN(c2ncc(-c3cc(-c4ncccc4C#N)c4sc(NC(=O)NCC)nc4c3)cn2)CC1 | > 800 µg/mL
* CCNC(=O)Nc1nc2cc(-c3cnc(N4CCC(C)(C(=O)O)CC4)nc3OC)cc(-c3ccccn3)c2s1 | 400 to 800 µg/mL

q: Which solubility at 24 h value is on record for `CCNC(=O)Nc1nc2cc(-c3cnc(N4CCC(C)(C(=O)O)CC4)nc3C)cc(-c3ccccn3)c2s1` ?
a: > 800 µg/mL

q: // same read-out, input: `CCNC(=O)Nc1nc2cc(-c3cnc(N4CCC(CC)(C(=O)O)CC4)nc3)cc(-c3ccc(F)cc3)c2s1`
a: > 800 µg/mL

q: // same read-out, input: `CCNC(=O)Nc1nc2cc(-c3cnc(N4CCC(CC)(C(=O)O)CC4)nc3)cc(COC)c2s1`
a: > 800 µg/mL

q: // same read-out, input: `CCNC(=O)Nc1nc2cc(-c3cnc(N4CCC(C)(C(=O)O)CC4)nc3)cc(/C(C)=N/OCCO)c2s1`
a: > 800 µg/mL

q: // same read-out, input: `CCNC(=O)Nc1nc2cc(-c3ccnc(N4CCC(C)(C(=O)O)CC4)c3)cc(-c3ccccn3)c2s1`
a: > 800 µg/mL

q: // same read-out, input: `CCNC(=O)Nc1nc2cc(-c3cnc(N4CCC(C)(C(=O)O)CC4)nc3)cc(-c3cc(C)c(F)cn3)c2s1`
a: > 800 µg/mL

q: // same read-out, input: `CCNC(=O)Nc1nc2cc(-c3csc(N4CCC(CC)(C(=O)O)CC4)n3)cc(-c3ccccn3)c2s1`
a: 400 to 800 µg/mL

* * *

- run.description: physchem
- measurement.conditions: pH 7.4, aqueous buffer, kinetic from dmso stock, Max Solubility
measured.endpoint: solubility at 24 h

- CCNC(=O)Nc1nc2cc(-c3cnc(N4CCC(C)(C(=O)O)CC4)nc3)cc(-c3ccncc3)c2s1: ≥ 800 µg/mL

q: Which solubility at 24 h value is on record for `CCNC(=O)Nc1nc2c(F)c(-c3cnc(N4CCC(C)(C(=O)O)CC4)nc3)cc(-c3ccccn3)c2s1` ?
a: ≥ 800 µg/mL

q: // same read-out, input: `CCNC(=O)Nc1nc2cc(-c3cnc(N4CCC(C)(C(=O)O)CC4)cn3)cc(-c3ccccn3)c2s1`
a: ≥ 800 µg/mL

q: // same read-out, input: `CCNC(=O)Nc1nc2cc(-c3cnc(N4CCC(CC(F)(F)F)(C(=O)O)CC4)nc3)cc(-c3ccccn3)c2s1`
a: ≥ 800 µg/mL

q: // same read-out, input: CCNC(=O)Nc1nc2cc(-c3cnc(N4CCC(C)(C(=O)O)C4)nc3)cc(-c3ccccn3)c2s1 (stereo not shown)
a: ≥ 800 µg/mL

q: // same read-out, input: `CCNC(=O)Nc1nc2cc(-c3cnc(N4CCC(C)(C(=O)O)CC4)nc3)cc(/C(C)=N/OCC)c2s1`
a: ≥ 800 µg/mL

q: // same read-out, input: `CCNC(=O)Nc1nc2cc(-c3cnc(N4CCC(C)(C(=O)O)CC4)nc3)cc(C(=O)N(C)CC)c2s1`
a: ≥ 800 µg/mL
